test: Solubility study of Compound (II) in lipid excipients and surfactants; format: physicochemical; settings: aqueous with cosolvent or surfactant or cyclodextrin, thermodynamic from solid; excipient Tween-20; read-out: Limit of solubility in Tween-20
QUANTITY: solubility

Could you tell me which solubility is on file for `C[C@H](CCOc1cccc(CC(=O)O)c1)N(Cc1cccc(C(F)(F)F)c1Cl)CC(c1ccccc1)c1ccccc1` ? > 200 mg/mL

----------
assay: physchem; conditions: oil or lipid
QUANTITY: solubility

If you can, please state the reported solubility value of C[C@H](CCOc1cccc(CC(=O)O)c1)N(Cc1cccc(C(F)(F)F)c1Cl)CC(c1ccccc1)c1ccccc1 [Compound (II)] . > 250 mg/mL

----------
assay: Solubility study of Compound (II) in lipid excipients and surfactants; assay type: physicochemical; conditions: oil or lipid, thermodynamic from solid; excipient Capryol 90; read-out: Limit of solubility in Capryol 90
QUANTITY: solubility

Bench note: what solubility did `C[C@H](CCOc1cccc(CC(=O)O)c1)N(Cc1cccc(C(F)(F)F)c1Cl)CC(c1ccccc1)c1ccccc1` show? > 200 mg/mL

----------
assay: Solubility study of Compound (II) in lipid excipients and surfactants; format: physicochemical; details: oil or lipid, thermodynamic from solid; excipient Plurol Oleique CC 497; read-out: Limit of solubility in Plurol Oleique CC 497
QUANTITY: solubility

Can you look up the measured solubility of `C[C@H](CCOc1cccc(CC(=O)O)c1)N(Cc1cccc(C(F)(F)F)c1Cl)CC(c1ccccc1)c1ccccc1` for me? > 200 mg/mL

----------
assay: Solubility study of Compound (II) in lipid excipients and surfactants; format: physicochemical; conditions: oil or lipid, thermodynamic from solid; excipient Lauroglycol FCC; read-out: Limit of solubility in Lauroglycol FCC
QUANTITY: solubility

# input molecule: C[C@H](CCOc1cccc(CC(=O)O)c1)N(Cc1cccc(C(F)(F)F)c1Cl)CC(c1ccccc1)c1ccccc1 [Compound (II)] ; wanted: its solubility > 200 mg/mL

----------
experiment: Solubility study of Compound (II) in lipid excipients and surfactants; assay type: physicochemical; settings: organic solvent or mixture, thermodynamic from solid; excipient PEG-200; read-out: Limit of solubility in PEG-200
QUANTITY: solubility

Can you look up the measured solubility of `C[C@H](CCOc1cccc(CC(=O)O)c1)N(Cc1cccc(C(F)(F)F)c1Cl)CC(c1ccccc1)c1ccccc1` for me? > 200 mg/mL

----------
assay: Solubility study of Compound (II) in lipid excipients and surfactants; type: physicochemical; settings: aqueous with cosolvent or surfactant or cyclodextrin, thermodynamic from solid; excipient Tween-80; read-out: Limit of solubility in Tween-80
QUANTITY: solubility

Recorded solubility for C[C@H](CCOc1cccc(CC(=O)O)c1)N(Cc1cccc(C(F)(F)F)c1Cl)CC(c1ccccc1)c1ccccc1 [Compound (II)] , please? > 200 mg/mL

----------
test: Solubility study of Compound (II) in lipid excipients and surfactants; format: physicochemical; settings: oil or lipid, thermodynamic from solid; excipient Maisine 35-1; read-out: Limit of solubility in Maisine 35-1
QUANTITY: solubility

Fill in: solubility of `C[C@H](CCOc1cccc(CC(=O)O)c1)N(Cc1cccc(C(F)(F)F)c1Cl)CC(c1ccccc1)c1ccccc1` is ___ > 200 mg/mL

----------
assay: Solubility study of Compound (II) in lipid excipients and surfactants; assay type: physicochemical; conditions: oil or lipid, thermodynamic from solid; excipient Phosal 53 MCT; read-out: Limit of solubility in Phosal 53 MCT
QUANTITY: solubility

Which solubility value is on record for C[C@H](CCOc1cccc(CC(=O)O)c1)N(Cc1cccc(C(F)(F)F)c1Cl)CC(c1ccccc1)c1ccccc1 [Compound (II)] ? > 200 mg/mL
